# Test system: MOLT-4 leukemia
# Assay name: NCI tumour cell line growth inhibition, 48 h
Where a SMILES comes first, the peptide text is derived from it. Bridges are numbered along the chain shown (N, C = ends). [ ]: non-standard residue; d: D form. aThr = C[C@H](O)[C@H](N)C(=O)O
Recorded metric: TGI

input: Reported TGI for N#Cc1ccccc1OCCOc1ccccc1C#N : what is it?
output: > 100 µM

input: Now consider CC(C)C[C@@H]1NC(=O)[C@@H]2CCCN2C(=O)[C@@H]2CCCN2C(=O)[C@H](CC(C)C)NC(=O)[C@H](CO)NC(=O)[C@H](CCCCN)NC(=O)[C@H]([C@H](C)O)NC(=O)[C@@H]2CSSC[C@@H](NC1=O)C(=O)N[C@@H](Cc1ccccc1)C(=O)N1CCC[C@H]1C(=O)N[C@@H](CC(=O)O)C(=O)NCC(=O)N[C@@H](CCCN=C(N)N)C(=O)N2 (cyclo(C[aThr]KSLPPL[dC]FPDGR); disulfide 1-9) and answer again.
output: > 50 µM

====

# Test system: OVCAR-5 ovarian
# Assay name: NCI tumour cell line growth inhibition, 48 h
TGI values for the compounds below.

Solved entries (count: 4):
>  <Compound>
CCO/C=C1\SC(=S)N(c2ccc(OCC)cc2)C1=O

>  <TGI>
> 100 µM

$$$$
>  <Compound>
COc1ccc(-c2[nH]c3ccc(OC)cc3c2C=C(C#N)C#N)cc1

>  <TGI>
> 100 µM

$$$$
>  <Compound>
CCCCS(=O)c1sc2nc(-c3cccs3)cc(-c3ccccc3)c2c1N (stereo not given)

>  <TGI>
> 88.9 µM

$$$$
>  <Compound>
CC1NOC(=O)C1N=Nc1ccc(Cl)cc1Cl (stereo not given)

>  <TGI>
> 100 µM

$$$$

input: Find the recorded TGI belonging to CSc1nncc(-c2cc3c(c(SC)n2)CCCC3)n1 and report it.
output: > 100 µM

====

# System: K-562 leukemia
# Assay name: NCI tumour cell line growth inhibition, 48 h
List of TGI values.

input: # get_value(readout='TGI', item= COc1ccccc1Oc1nccc(-c2c(-c3ccc(F)cc3)ncn2C2CCNCC2)n1 )
output: > 25 µM

input: // repeat for Oc1c(N2CCCCC2)cc(-c2cc(N3CCCCC3)c(O)c3ccccc23)c2ccccc12 and report
output: > 100 µM

input: Moving on to the next compound: CSc1nncc(-c2cc3c(c(SC)n2)CCCC3)n1
output: > 100 µM

input: One more compound: Cc1ccc(S(=O)(=O)N(CC(O)COc2ccccc2)c2c(F)cccc2F)cc1 (stereo not given)
output: > 100 µM

input: Now this one: COC(=O)C1CCC(=O)N1CN(C(C)=O)c1cccc(O)c1 (stereo not given)
output: > 100 µM

====

# Tested on: SF-268 CNS
# Assay name: NCI tumour cell line growth inhibition, 48 h
Recorded metric: TGI

Reference set, count: 2
>  <Smiles>
O=C1c2ccccc2C(=O)c2[nH]cnc21

>  <Recorded result>
> 100 µM

$$$$
>  <Smiles>
COc1ccc2ccccc2c1C1=NC(C)(C)CO1

>  <Recorded result>
> 100 µM

$$$$

input: Name the recorded TGI for Cc1noc(NC(=O)Nc2ccccc2F)c1C#N .
output: > 48.9 µM

====

TGI values, listed per item
# Test system: CCRF-CEM leukemia
# Assay name: NCI tumour cell line growth inhibition, 48 h

>  <Molecule>
COC12C(COC(=O)NCCO)C3=C(C(=O)C(C)=C(N)C3=O)N1CC1NC12 (stereo unspecified)

>  <Recorded metric>
TGI

>  <Recorded result>
> 264 µM

$$$$
>  <Molecule>
O=C(CCCC(=O)Nc1ccc(Cl)cc1Cl)CC(=O)c1ccc2ccccc2c1

>  <Recorded metric>
TGI

>  <Recorded result>
> 100 µM

$$$$
>  <Molecule>
O=C(O)CN(CCN(CC(=O)O)CC(=O)O)CC(=O)O.[Mn+2]

>  <Recorded metric>
TGI

>  <Recorded result>
> 100 µM

$$$$
>  <Molecule>
CCCCCC/C=C\CCCCCCCCC(=O)c1cccc(OC)c1OC

>  <Recorded metric>
TGI

>  <Recorded result>
> 100 µM

$$$$
>  <Molecule>
COC(CN(C)C(=S)Nc1cccc2ccccc12)OC

>  <Recorded metric>
TGI

>  <Recorded result>
> 10 µM

$$$$

input: Using the record for CCN(/C=C1/C(=O)C(c2ccccc2)N(c2ccccc2)C1=O)CC (stereo unspecified) , report its TGI.
output: > 10 µM
